Reported pKi values are given for each entry in this list.
# measured.target: Alpha-2 adrenergic receptor (Rattus norvegicus)
# procedure.text: Displacement of [3H]clonidine from adrenergic alpha-2 receptor in Sprague-Dawley rat cortex
pKi: −log10 of the molar value.

[
  {
    "molecule": "C[C@H]1Cc2sc([N+](=O)[O-])cc2CN1",
    "pKi": 4.54
  },
  {
    "molecule": "C[C@@H]1Cc2sc(C#N)cc2CN1",
    "pKi": 4.33
  },
  {
    "molecule": "CC1Cc2ccc(Br)cc2CN1 (racemic)",
    "pKi": 5.96
  },
  {
    "molecule": "CC(=O)c1cc2c(s1)CCNC2",
    "pKi": 5.01
  }
]

----------
# measured.target: Phenylethanolamine N-methyltransferase (Homo sapiens) (UniProt P11086)
# Sequence (P11086 whole entry, looked up): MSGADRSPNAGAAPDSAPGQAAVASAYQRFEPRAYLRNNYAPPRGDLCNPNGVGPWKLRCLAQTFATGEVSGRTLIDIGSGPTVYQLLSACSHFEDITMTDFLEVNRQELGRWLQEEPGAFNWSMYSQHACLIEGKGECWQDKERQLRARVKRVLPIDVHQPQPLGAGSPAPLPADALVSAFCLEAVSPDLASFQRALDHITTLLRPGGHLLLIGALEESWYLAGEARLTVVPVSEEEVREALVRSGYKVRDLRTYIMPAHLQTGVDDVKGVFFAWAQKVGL
Quick rule for you: Ki under 5 µM gets rule met, anything else gets rule not met.

[
  {
    "compound": "CC1Cc2sc3ccccc3c2CN1 (racemic)",
    "class.name": "rule met"
  },
  {
    "compound": "NCCc1ccccc1",
    "class.name": "rule not met"
  },
  {
    "compound": "NC(=O)c1ccc2c(c1)CNCC2",
    "class.name": "rule not met"
  },
  {
    "compound": "CC1Cc2ccccc2CN1 (racemic)",
    "class.name": "rule met"
  },
  {
    "compound": "Cc1ccc2c(c1)CNCC2",
    "class.name": "rule met"
  }
]

----------
# measured.target: Alpha-2 adrenergic receptor (Rattus norvegicus)
# procedure.text: Displacement of [3H]clonidine from adrenergic alpha-2 receptor in Sprague-Dawley rat cortex
pKi: −log10 of the molar value.
Reported pKi values are given for each entry in this list.
test.readout: pKi

[
  {
    "compound": "NC(=O)c1cc2c(s1)CCNC2",
    "measured.target": "Alpha-2 adrenergic receptor (Rattus norvegicus)",
    "test.readout": "pKi",
    "qualifying.sign": "=",
    "measured.result": 5.39
  },
  {
    "compound": "CC1Cc2sc(Br)cc2CN1 (stereo unspecified)",
    "measured.target": "Alpha-2 adrenergic receptor (Rattus norvegicus)",
    "test.readout": "pKi",
    "qualifying.sign": "=",
    "measured.result": 5.64
  },
  {
    "compound": "O=[N+]([O-])C1=CC2CNCCC2S1 (stereo unspecified)",
    "measured.target": "Alpha-2 adrenergic receptor (Rattus norvegicus)",
    "test.readout": "pKi",
    "qualifying.sign": "=",
    "measured.result": 4.74
  },
  {
    "compound": "C[C@H]1Cc2sc(C#N)cc2CN1",
    "measured.target": "Alpha-2 adrenergic receptor (Rattus norvegicus)",
    "test.readout": "pKi",
    "qualifying.sign": "=",
    "measured.result": 3.89
  },
  {
    "compound": "FC(F)(F)C1Cc2sc(Br)cc2CN1 (stereo unspecified)",
    "measured.target": "Alpha-2 adrenergic receptor (Rattus norvegicus)",
    "test.readout": "pKi",
    "qualifying.sign": "<",
    "measured.result": 3.00
  },
  {
    "compound": "C[C@@H]1Cc2sc([N+](=O)[O-])cc2CN1",
    "measured.target": "Alpha-2 adrenergic receptor (Rattus norvegicus)",
    "test.readout": "pKi",
    "qualifying.sign": "=",
    "measured.result": 4.89
  }
]
